ASSAY EXPLANATION: Caco-2 permeability assay
ASSAY SETUP: human, Caco-2, pH 7.4
EXPERIMENTAL ENDPOINT: Papp B→A at 90 min, 10 μM

Some entries whose results are on file:
MOLECULE: Cc1cccnc1C1CCCN1Cc1nc2cccc(N3CCN(C)CC3)n2c1Br (centres unmarked)
VALUE MEASURED: 10 to 30 ×10⁻⁶ cm/s
//
MOLECULE: FC(F)(F)CN1CCN(c2c(CN3CCCC3c3ccccn3)nc3ccccn23)CC1 (centres unmarked)
VALUE MEASURED: > 30 ×10⁻⁶ cm/s
//
MOLECULE: c1ccc(C2CCCN2Cc2nc3ccccn3c2N2CCN(c3ccccn3)CC2)nc1 (centres unmarked)
VALUE MEASURED: > 30 ×10⁻⁶ cm/s

Reported Papp B→A at 90 min, 10 μM for c1ccc(C2CCCN2Cc2nc3ccccn3c2N2CCN(C3CC3)CC2)nc1 (centres unmarked) was 10 to 30 ×10⁻⁶ cm/s

Reported Papp B→A at 90 min, 10 μM for Cc1cccnc1C1CCCN1Cc1nccn1C1CCN(C)CC1 (centres unmarked) was > 30 ×10⁻⁶ cm/s

Reported Papp B→A at 90 min, 10 μM for CN1CCN(c2cccnc2CN2CCCC2c2ccccn2)CC1 (centres unmarked) was 10 to 30 ×10⁻⁶ cm/s

Reported Papp B→A at 90 min, 10 μM for Cc1cccnc1C1CCCN1Cc1nc2cccc(N3CCN(C)CC3)n2c1F (centres unmarked) was 10 to 30 ×10⁻⁶ cm/s

Reported Papp B→A at 90 min, 10 μM for CN1CCN(c2cccc3[nH]c(CN4CCCC4c4nccn4C)nc23)CC1 (centres unmarked) was 10 to 30 ×10⁻⁶ cm/s

Reported Papp B→A at 90 min, 10 μM for Cc1cccnc1C1CCCN1Cc1nc2ccccn2c1N1CCN(C)CC1 (centres unmarked) was > 30 ×10⁻⁶ cm/s

Reported Papp B→A at 90 min, 10 μM for Cc1cccnc1C1CCCN1Cc1nc2cccc(N3CCN(C)CC3)c2s1 (centres unmarked) was 10 to 30 ×10⁻⁶ cm/s

Reported Papp B→A at 90 min, 10 μM for Cc1cccnc1CN1CCCC1c1nc2cccc(N3CCN(C)CC3)c2[nH]1 (centres unmarked) was 10 to 30 ×10⁻⁶ cm/s

Reported Papp B→A at 90 min, 10 μM for CN1CCC(n2ccnc2CN2CCCC2c2ccccn2)CC1 (centres unmarked) was 10 to 30 ×10⁻⁶ cm/s

Reported Papp B→A at 90 min, 10 μM for CN1CCN(c2cccc3nc(CN4CCCC4c4nccc5ccccc45)cn23)CC1 (centres unmarked) was 10 to 30 ×10⁻⁶ cm/s

Reported Papp B→A at 90 min, 10 μM for CN1CCN(C(=O)c2c(CN3CCCC3c3ccccn3)nc3ccccn23)CC1 (centres unmarked) was 10 to 30 ×10⁻⁶ cm/s

Reported Papp B→A at 90 min, 10 μM for Cc1cccnc1C1CCCN1Cc1ccccc1-n1cccn1 (centres unmarked) was 10 to 30 ×10⁻⁶ cm/s

* * *

Measured IC50 values are reported for all entries that follow.
SYSTEM: CXCR4 (Jurkat cells expressing CXCR4) (Homo sapiens)
Construct: Jurkat cells expressing CXCR4; endogenous in cells
Sequence (P61073 whole entry): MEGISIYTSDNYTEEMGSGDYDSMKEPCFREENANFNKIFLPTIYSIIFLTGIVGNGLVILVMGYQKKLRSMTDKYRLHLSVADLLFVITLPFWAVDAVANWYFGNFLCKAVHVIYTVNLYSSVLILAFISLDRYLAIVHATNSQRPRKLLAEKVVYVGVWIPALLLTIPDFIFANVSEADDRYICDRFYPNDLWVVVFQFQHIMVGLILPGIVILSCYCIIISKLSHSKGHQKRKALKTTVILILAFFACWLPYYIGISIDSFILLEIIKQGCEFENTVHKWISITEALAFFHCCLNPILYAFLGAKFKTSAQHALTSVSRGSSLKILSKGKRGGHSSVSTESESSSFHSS
ASSAY EXPLANATION: Chemokine (CXCL12-AF647) binding inhibition assay
ASSAY SETUP: CXCL12-AF647 25 ng/mL, read-out: IC50 CXCL-12 binding Jurkat

MOLECULE: Cc1cccnc1C1CCCN1Cc1nc2cccc(N3CCN(C)C4(CC4)C3)c2[nH]1 (centres unmarked) [Compound I-28]
VALUE MEASURED: 100 to 1000 nM
--
MOLECULE: Cc1cccnc1C1CCCCN1Cc1cn2c(N3CCN(C)CC3)cccc2n1 (centres unmarked) [Compound I-1]
VALUE MEASURED: 0.01 to 100 nM
--
MOLECULE: CN1CCN(c2c(CN3CCCC3c3ccc(F)cn3)nc3ccccn23)CC1 (centres unmarked) [Compound I-76]
VALUE MEASURED: 0.01 to 100 nM

Reported IC50 for CN1CCN(c2cccc3[nH]c(C4CCCN4Cc4ccccc4-n4cccn4)nc23)CC1 (centres unmarked) [Compound I-5] was ≥ 1000 nM

Reported IC50 for Cc1cccnc1C1CCCN1Cc1ncccc1CN1CCOCC1 (centres unmarked) [Compound I-118] was 100 to 1000 nM

Data credit: patent US11332470B2
